Origin of values: patent US11759462B2

Can you tell me pIC50 for the items I'm about to list?
- test_system: Recombinant human TPH1 (MBP tagged) (Homo sapiens, UniProt P17752)
- Construct: cloning full length human TPH1 cDNA in to a bacterial pMAL-c5E expression vector; made in house; host or cells: E. coli BL21 (DE3)
- Sequence (P17752 1-444): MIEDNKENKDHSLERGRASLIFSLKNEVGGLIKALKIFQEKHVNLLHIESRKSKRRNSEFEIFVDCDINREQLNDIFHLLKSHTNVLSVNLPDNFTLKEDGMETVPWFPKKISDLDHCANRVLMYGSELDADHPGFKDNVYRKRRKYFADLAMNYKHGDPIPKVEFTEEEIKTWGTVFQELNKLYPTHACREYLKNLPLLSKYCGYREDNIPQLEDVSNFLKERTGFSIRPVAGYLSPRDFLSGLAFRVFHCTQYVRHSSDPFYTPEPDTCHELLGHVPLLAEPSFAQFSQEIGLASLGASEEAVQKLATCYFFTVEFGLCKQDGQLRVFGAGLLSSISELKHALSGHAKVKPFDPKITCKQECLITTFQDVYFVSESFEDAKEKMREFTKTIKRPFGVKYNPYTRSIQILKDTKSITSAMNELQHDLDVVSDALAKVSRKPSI
- method_description: TPH1 in vitro inhibition assay (kinetic fluorescence)
- Format: biochemical
- test_conditions: read-out: TPH1 Range (TPH1 inhibition IC50)
pIC50: −log10 of the molar value.

Cc1ccn(-c2cc(-c3ccc(OC(C)C)cc3)ccc2[C@@H](Oc2cc(N3CCC4(CC3)CN[C@H](C(=O)O)C4)nc(N)n2)C(F)(F)F)n1 | > 7.30
Nc1nc(NCc2ccc3ccccc3c2)nc(N2CCC3(CC2)CNC(C(=O)O)C3)n1 (stereo not drawn) [Example 39a] | 5.52 to 6.52

// for each compound in input: emit pIC50
1. Nc1nc(NCc2cccc(-c3ccccc3)c2)nc(N2CCC3(CC2)CNC(C(=O)O)C3)n1 (stereo not drawn) [Example 39d]
2. CC(=O)N1CC=C(c2ccc([C@@H](Oc3cc(N4CCC5(CC4)CN[C@H](C(=O)O)C5)nc(N)n3)C(F)(F)F)c(-n3ccc(C)n3)c2)CC1
3. Nc1nc(O[C@H](c2ccc(-c3ccc4nnccc4c3)cc2)C(F)(F)F)cc(N2CCC3(CC2)CN[C@H](C(=O)O)C3)n1 [Example 55dp]
4. CCOc1ccc(-c2ccc([C@@H](Oc3cc(N4CCC5(CC4)CN[C@H](C(=O)O)C5)nc(N)n3)C(F)(F)F)cc2)cc1F [Example 55dn]

Result:
5.00 to 5.52
> 7.30
> 7.30
6.52 to 7.30
